# Assayed system: hERG (KCNH2) (Homo sapiens, UniProt Q12809)
# Sequence (Q12809 whole entry): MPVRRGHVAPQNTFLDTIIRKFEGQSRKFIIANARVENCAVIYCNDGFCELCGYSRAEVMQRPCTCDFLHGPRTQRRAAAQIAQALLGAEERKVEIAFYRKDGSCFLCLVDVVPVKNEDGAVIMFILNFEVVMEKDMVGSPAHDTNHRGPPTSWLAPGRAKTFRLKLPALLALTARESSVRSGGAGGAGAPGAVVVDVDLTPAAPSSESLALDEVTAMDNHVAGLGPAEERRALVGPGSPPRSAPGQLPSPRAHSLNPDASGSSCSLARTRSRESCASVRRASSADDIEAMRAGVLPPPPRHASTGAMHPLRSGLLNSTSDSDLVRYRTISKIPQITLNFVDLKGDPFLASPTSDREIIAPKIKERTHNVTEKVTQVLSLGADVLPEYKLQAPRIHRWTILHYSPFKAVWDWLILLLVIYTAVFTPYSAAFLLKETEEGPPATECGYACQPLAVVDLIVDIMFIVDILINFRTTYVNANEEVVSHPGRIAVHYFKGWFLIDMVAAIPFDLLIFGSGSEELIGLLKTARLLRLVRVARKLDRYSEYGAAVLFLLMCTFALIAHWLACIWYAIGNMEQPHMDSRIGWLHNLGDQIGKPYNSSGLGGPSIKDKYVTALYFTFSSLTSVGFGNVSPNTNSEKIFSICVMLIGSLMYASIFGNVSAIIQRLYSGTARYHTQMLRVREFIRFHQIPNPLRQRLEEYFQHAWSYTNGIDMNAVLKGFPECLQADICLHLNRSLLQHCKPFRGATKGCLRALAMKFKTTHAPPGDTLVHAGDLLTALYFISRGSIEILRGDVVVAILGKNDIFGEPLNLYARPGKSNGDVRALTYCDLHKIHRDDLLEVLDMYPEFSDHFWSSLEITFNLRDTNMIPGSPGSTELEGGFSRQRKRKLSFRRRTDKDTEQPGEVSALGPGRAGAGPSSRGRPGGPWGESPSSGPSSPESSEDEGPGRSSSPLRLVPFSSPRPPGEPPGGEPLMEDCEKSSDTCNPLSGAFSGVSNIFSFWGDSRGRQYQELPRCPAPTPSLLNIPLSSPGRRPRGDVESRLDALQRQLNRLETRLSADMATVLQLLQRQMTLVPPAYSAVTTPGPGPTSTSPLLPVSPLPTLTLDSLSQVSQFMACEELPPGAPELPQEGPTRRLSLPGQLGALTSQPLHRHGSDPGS
# Assay overview: Inhibition of [3H]dofetilide binding to HERG expressed in HEK293 cells at 300 nM
# Type: cell-based
# Particulars: HEK293 cells that express hERG, probe [3H]dofetilide
Below, each entry is listed alongside its reported inhibition at 0.3 µM.

Here's what some known entries look like.
Cc1nnc(C(C)C)n1C1CC2CCC(C1)N2CC[C@H](NC(=O)CCC(F)(F)F)c1ccccc1 (stereo not given in full)
14%
Cc1nc2ccccc2n1C1CC2CCC(C1)N2CC[C@H](NC(=O)C1CCC1)c1ccccc1 (stereo not given in full)
80%
Cc1nnc(C(C)C)n1C1CC2CCC(C1)N2CC[C@H](NC(=O)C1CCCC1)c1ccccc1 (stereo not given in full)
18%
Cc1nc2ccccc2n1C1CC2COCC(C1)N2CC[C@H](NC(=O)C1CCC1)c1ccccc1 (stereo not given in full)
70%

QUERY: Which inhibition at 0.3 µM reading was recorded for the compound Cc1nnc(C(C)C)n1C1CC2CCC(C1)N2CC[C@H](NC(=O)C1CCC1)c1ccccc1 (stereo not given in full) ?
RESULT: 30%

----------
# Assay overview: Distribution coefficient, log D of the compound
# Format: physicochemical
# Particulars: octanol/water
Recorded metric: logD
Number only, please.

Here's what some known entries look like.
Cc1nnc(C(C)C)n1C1CC2CCC(C1)N2CC[C@H](NC(=O)C1CCC1)c1ccccc1 (some centres undefined)
1.6
Cc1nnc(C(C)C)n1C1CC2CCC(C1)N2CC[C@H](NC(=O)CCC(F)(F)F)c1ccccc1 (some centres undefined)
1.8
Cc1nnc(C(C)C)n1[C@@H]1C[C@H]2CC[C@@H](C1)N2CC[C@H](NC(=O)C1CCC(F)(F)CC1)c1ccccc1 [MARAVIROC]
2.1

QUERY: Which logD reading was recorded for the compound Cc1nnc(C(C)C)n1C1CC2CCC(C1)N2CC[C@H](NC(=O)C1CCCC1)c1ccccc1 (some centres undefined) ?
RESULT: 2.1

----------
Below, each entry is listed alongside its reported inhibition at 0.1 µM.
# Assayed system: hERG (KCNH2) (Homo sapiens)
# Assay overview: Inhibition of [3H]dofetilide binding to HERG expressed in HEK293 cells at 100 nM
# Format: cell-based
# Particulars: HEK293 cells that express hERG, probe [3H]dofetilide
Value expressed in %; do not type the unit.

Here's what some known entries look like.
O=C(N[C@@H](CCN1CCC(c2noc(Cc3ccccc3)n2)CC1)c1ccccc1)C1CCC1
50
Cc1nnc(C)n1C1CC2CCC(C1)N2CC[C@H](NC(=O)C1CCC1)c1ccccc1 (some centres undefined)
10
Cc1nnc(C)n1C1CCN(CC[C@H](NC(=O)C2CCC2)c2ccccc2)CC1
5

Lab note: next compound to report on.
QUERY: Which inhibition at 0.1 µM reading was recorded for the compound Cc1nnc(C(C)C)n1C1CC2CCC(C1)N2CC[C@H](NC(=O)C1CCC1)c1ccccc1 (some centres undefined) ?
RESULT: 14
